Biological target: Recombinant human BACE-1 (Homo sapiens (Human), UniProt P56817)
Sequence (P56817 46-501): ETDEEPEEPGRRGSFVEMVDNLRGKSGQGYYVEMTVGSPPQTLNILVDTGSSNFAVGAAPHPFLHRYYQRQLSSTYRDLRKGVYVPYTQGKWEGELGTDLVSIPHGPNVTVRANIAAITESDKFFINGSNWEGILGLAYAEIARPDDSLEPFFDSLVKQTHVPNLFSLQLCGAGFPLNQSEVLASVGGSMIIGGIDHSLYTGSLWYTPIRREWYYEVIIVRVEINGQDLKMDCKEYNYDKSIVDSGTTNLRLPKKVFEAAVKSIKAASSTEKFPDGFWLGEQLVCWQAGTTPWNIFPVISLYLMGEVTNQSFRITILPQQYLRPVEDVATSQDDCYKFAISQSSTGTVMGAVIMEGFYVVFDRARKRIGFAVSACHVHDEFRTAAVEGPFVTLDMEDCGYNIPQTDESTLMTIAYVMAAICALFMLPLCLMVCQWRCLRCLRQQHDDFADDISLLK
Test: Assay of β-secretase-inhibiting activity
Conditions: Recombinant human BACE-1 7.4 nM, substrate peptide 18 nM, pH 5.0, 30° C. 3 hours
pIC50: −log10 of the molar value.
# key: entry, value: pIC50
measure name: pIC50

• C[C@@]1(c2cc(NC(=O)c3cnc(-n4nccn4)cn3)ccc2F)C=CSC(N)=N1 = 6.63
• C[C@@]1(c2cc(NC(=O)c3cnc(-n4cncn4)cn3)ccc2F)C=CSC(N)=N1 = 7.44
• C[C@@]1(c2cc(NC(=O)c3ccc(F)cn3)ccc2F)C=CSC(N)=N1 = 7.21
• COCCOc1ccc(C(=O)Nc2ccc(F)c([C@]3(C)C=CSC(N)=N3)c2)nc1 = 7.14

----------
# key: entry, value: pIC50
Biological target: Recombinant human BACE-1 (Homo sapiens (Human))
Assay: Assay of β-secretase-inhibiting activity
Settings: Recombinant human BACE-1 7.4 nM, substrate peptide 18 nM, pH 5.0, 30° C. 3 hours
pIC50: −log10 of the molar value.
measure name: pIC50

• C=C1C[C@@](C)(c2cc(NC(=O)c3cnc(OC)cn3)cnc2Cl)N=C(N)S1 = 7.85
• C=C1C[C@@](C)(c2cncc(NC(=O)c3ncc(C(F)(F)F)cc3Cl)c2)N=C(N)S1 = 6.99
• N#Cc1ccc(C(=O)Nc2cccc(C3(C(F)(F)F)CCSC(N)=N3)c2)nc1 (stereo not shown) = 7.04
• C=C1C[C@@](C)(c2cc(NC(=O)c3cnc(C)cn3)ccc2F)N=C(N)S1 = 7.12

----------
Target: Recombinant human BACE-1 (Homo sapiens (Human))
Assay: Assay of β-secretase-inhibiting activity
Conditions: Recombinant human BACE-1 7.4 nM, substrate peptide 18 nM, pH 5.0, 30° C. 3 hours
pIC50: −log10 of the molar value.
measure name: pIC50

• CC(C)=C1C[C@@](C)(c2cc(NC(=O)c3cnc(C)cn3)ccc2F)N=C(N)S1 = 7.02
• C[C@@]1(c2cc(NC(=O)c3ccc(-c4ccc[nH]4)cn3)ccc2F)C=CSC(N)=N1 = 7.01
• C[C@@]1(c2cc(NC(=O)c3cnc(-c4ncco4)cn3)ccc2F)C=CSC(N)=N1 = 6.52
• C[C@@]1(c2cc(NC(=O)c3cc4n(n3)CCN4)ccc2F)C=CSC(N)=N1 = 6.36

----------
Target: CYP3A4 (Homo sapiens (Human))
Sequence (P08684 whole entry): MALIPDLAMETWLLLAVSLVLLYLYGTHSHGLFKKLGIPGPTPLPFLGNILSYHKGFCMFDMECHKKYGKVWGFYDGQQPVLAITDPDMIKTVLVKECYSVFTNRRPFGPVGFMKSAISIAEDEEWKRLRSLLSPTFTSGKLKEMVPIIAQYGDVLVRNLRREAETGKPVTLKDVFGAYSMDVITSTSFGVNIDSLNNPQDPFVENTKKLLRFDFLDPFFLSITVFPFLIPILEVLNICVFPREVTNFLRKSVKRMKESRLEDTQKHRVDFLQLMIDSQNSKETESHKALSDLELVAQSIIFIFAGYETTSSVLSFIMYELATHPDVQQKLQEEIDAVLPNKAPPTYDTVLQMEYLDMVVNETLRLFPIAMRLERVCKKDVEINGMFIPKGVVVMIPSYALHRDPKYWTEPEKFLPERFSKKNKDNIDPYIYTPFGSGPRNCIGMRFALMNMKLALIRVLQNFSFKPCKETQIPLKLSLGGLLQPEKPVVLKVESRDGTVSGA
measure name: IC50

• CC(C)(C)S(=O)(=O)Nc1cnc(C(=O)Nc2ccc(F)c([C@]3(C)C=CSC(N)=N3)c2)cn1 [Compound 68] = > 20 µM
